Attribution: the supplement of paper PMC11208160

The entries below are paired with their reported recombinant barcode read abundance (log10).
experimental_details: recombinant barcode read abundance after kanamycin selection (control-corrected) (log10(CPM+1)); higher = more efficient recombination; sequences stand for … in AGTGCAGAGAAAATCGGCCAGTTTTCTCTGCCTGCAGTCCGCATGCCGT…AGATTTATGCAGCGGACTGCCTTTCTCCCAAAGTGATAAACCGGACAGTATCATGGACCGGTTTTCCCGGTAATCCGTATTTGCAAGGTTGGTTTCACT; site = the 11-nt target;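 note: IS621 recombinase and bridge RNA in Escherichia coli cells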
Enter the number alone.

- GTGTCTACTTGGGTTCTAACCTGTTGCCT (site TTGTATACTAG): 0.0293

// lookup recombinant barcode read abundance (log10) for CACCCACCTTGGGTTCTAACCTGTTGCCT (site GACCCACCTAG) 0.0974

// lookup recombinant barcode read abundance (log10) for GGGGCCTCTTGGGTTCTAACCTGTTGCAG (site GGTGCCTCTAT) 0.213

// lookup recombinant barcode read abundance (log10) for TAGGCATCTTGGGTTCTAACCTGTTGCTC (site TAGTCATCTGA) 0.115

// lookup recombinant barcode read abundance (log10) for TGTCAAACTTGGGTTCTAACCTGTTGCGT (site TGTCAAACTAC) 0.838

// lookup recombinant barcode read abundance (log10) for TCGGAATCTTGGGTTCTAACCTGTTGCCT (site GCGGAATCTAG) 0

// lookup recombinant barcode read abundance (log10) for TGAGACACTTGGGTTCTAACCTGTTGCTG (site TGAGACACTCA) 2.68

// lookup recombinant barcode read abundance (log10) for GACGTGCCTTGGGTTCTAACCTGTTGCCG (site GACGTGCCTCG) 1.77

// lookup recombinant barcode read abundance (log10) for CCGAATCCTTGGGTTCTAACCTGTTGCCT (site CCGAGTCCTAG) 0.122

// lookup recombinant barcode read abundance (log10) for TGTGACTCTTGGGTTCTAACCTGTTGCCT (site TGAGACTCTAG) 0.088
